propertyLabel: melting point

In [3]: df
Out[3]:
                                   compound  propertylabel       reported
0  CC[C@H](CO)Nc1nc(SCc2cccc(Oc3ccccc3)c2)nc2nc(N)sc12  melting point  108 to 111 °C
1  Nc1nc2nc(SCc3cccc(Oc4ccccc4)c3)nc(NC(CO)CO)c2s1  melting point  220 to 222 °C
2  CCCCCSc1nc(NC(CC)CO)c2sc(N)nc2n1 (racemic)  melting point  151 to 154 °C
3  Nc1nc2nc(SCc3cccc(Oc4ccccc4)c3)[nH]c(=O)c2s1  melting point  266 to 269 °C
4            CCCCCSc1nc2nc(Br)sc2c(=O)[nH]1  melting point  189 to 191 °C
5              CCCCCSc1nc(NCCO)c2sc(N)nc2n1  melting point  192 to 195 °C
6  CC[C@@H](CO)Nc1nc(SCc2cccc(Oc3ccccc3)c2)nc2nc(N)sc12  melting point  111 to 114 °C
7                CCCCCSc1nc2ncsc2c(=O)[nH]1  melting point  208 to 209 °C
8  O=c1[nH]c(SCc2cccc(Oc3ccccc3)c2)nc2ncsc12  melting point  197 to 198 °C
9  CC(C)(CO)Nc1nc(SCc2cccc(Oc3ccccc3)c2)nc2nc(N)sc12  melting point  126 to 130 °C
